Quick list: Radioactivity distribution Small intestine per entry.
MEASUREMENT NOTES: In vivo kinetics experiment (radioactivity distribution)
Design: species or system Wistar male rat
MEASUREMENT SETUP: rat, caudal vein, 10 min after administration
The answer is to be given in % ID/g; state only the numeric part.

Guide cases for Radioactivity distribution Small intestine, answers given:
- [123I]c1ccc2nc(-c3cncc(Cn4ccnn4)c3)n(C3CC3)c2c1 [[^123I] 603]: 1.29
- Fc1cc2nc(-c3cncc(Cn4ccnc4)c3)n(CCC[18F])c2cc1Cl [[^18F] 500]: 1.32
- FCCn1c(-c2cncc(Cn3ccnc3)c2)nc2cc(F)c([123I])cc21 [[^123I] 400]: 1.30
- Fc1cc2nc(-c3cncc(Cn4ccnc4)c3)n(CC[18F])c2cc1Cl [[^18F] 100]: 1.03
- Fc1cc2nc(-c3cncc(Cn4ccnc4)c3)n(CC[18F])c2cc1Br [[^18F] 200]: 1.07

Query: Name the reported Radioactivity distribution Small intestine value associated with the molecule [123I]c1ccc2nc(-c3cncc(Cn4ccnc4)c3)n(C3CC3)c2c1 [[^123I] 602]
Reply: 1.30

Data credit: patent US10358434B2
